# Test system: HeLa Kyoto;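 further: synchronized HeLa Kyoto cells, proteins quantified by TMT10plex mass spectrometry, three biological replicates, mitosis taken 0.5 h after nocodazole release, G1/S directly after double thymidine block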
# test.details: thermal stability score vs G1/S (z-score of summed log2 fold changes over temperatures); higher = more thermally stable than in G1/S
# reported.conditions: cell cycle stage: early G1 (4.5 h after nocodazole release)

substance	subject.of.test	thermal stability score
RAPGEF2	HeLa Kyoto	-0.581
MPLVVFCGLPYSGKSRRAEELRVALAAEGRAVYVVDDAAVLGAEDPAVYGDSAREKALRGALRASVERRLSRHDVVILDSLNYIKGFRYELYCLARAARTPLCLVYCVRPGGPIAGPQVAGANENPGRNVSVSWRPRAEEDGRAQAAGSSVLRELHTADSVVNGSAQADVPKELEREESGAAESPALVTPDSEKSAKHGSGAFYSPELLEALTLRFEAPDSRNRWDRPLFTLVGLEEPLPLAGIRSALFENRAPPPHQSTQSQPLASGSFLHQLDQVTSQVLAGLMEAQKSAVPGDLLTLPGTTEHLRFTRPLTMAELSRLRRQFISYTKMHPNNENLPQLANMFLQYLSQSLH [KTI12]	HeLa Kyoto	-1.22
MAAPEPLRPRLCRLVRGEQGYGFHLHGEKGRRGQFIRRVEPGSPAEAAALRAGDRLVEVNGVNVEGETHHQVVQRIKAVEGQTRLLVVDQETDEELRRRQLTCTEEMAQRGLPPAHDPWEPKPDWAHTGSHSSEAGKKDVSGPLRELRPRLCHLRKGPQGYGFNLHSDKSRPGQYIRSVDPGSPAARSGLRAQDRLIEVNGQNVEGLRHAEVVASIKAREDEARLLVVDPETDEHFKRLRVTPTEEHVEGPLPSPVTNGTSPAQLNGGSACSSRSDLPGSDKDTEDGSAWKQDPFQESGLHLSPTAAEAKEKARAMRVNKRAPQMDWNRKREIFSNF [SLC9A3R2]	HeLa Kyoto	-1.69
MEVTGVSAPTVTVFISSSLNTFRSEKRYSRSLTIAEFKCKLELLVGSPASCMELELYGVDDKFYSKLDQEDALLGSYPVDDGCRIHVIDHSGARLGEYEDVSRVEKYTISQEAYDQRQDTVRSFLKRSKLGRYNEEERAQQEAEAAQRLAEEKAQASSIPVGSRCEVRAAGQSPRRGTVMYVGLTDFKPGYWIGVRYDEPLGKNDGSVNGKRYFECQAKYGAFVKPAVVTVGDFPEEDYGLDEI [TBCB]	HeLa Kyoto	-0.00262
MPILKQLVSSSVHSKRRSRADLTAEMISAPLGDFRHTMHVGRAGDAFGDTSFLNSKAGEPDGESLDEQPSSSSSKRSLLSRKFRGSKRSQSVTRGEREQRDMLGSLRDSALFVKNAMSLPQLNEKEAAEKGTSKLPKSLSSSPVKKANDGEGGDEEAGTEEAVPRRNGAAGPHSPDPLLDEQAFGDLTDLPVVPKATYGLKHAESIMSFHIDLGPSMLGDVLSIMDKEEWDPEEGEGGYHGDEGAAGTITQAPPYAVAAPPLARQEGKAGPDLPSLPSHALEDEGWAAAAPSPGSARSMGSHTTRDSSSLSSCTSGILEERSPAFRGPDRARAAVSRQPDKEFSFMDEEEEDEIRV [CDC42EP4]	HeLa Kyoto	-3.73
MGTKAQVERKLLCLFILAILLCSLALGSVTVHSSEPEVRIPENNPVKLSCAYSGFSSPRVEWKFDQGDTTRLVCYNNKITASYEDRVTFLPTGITFKSVTREDTGTYTCMVSEEGGNSYGEVKVKLIVLVPPSKPTVNIPSSATIGNRAVLTCSEQDGSPPSEYTWFKDGIVMPTNPKSTRAFSNSSYVLNPTTGELVFDPLSASDTGEYSCEARNGYGTPMTSNAVRMEAVERNVGVIVAAVLVTLILLGILVFGIWFAYSRGHFDRTKKGTSSKKVIYSQPSARSEGEFKQTSSFLV [F11R]	HeLa Kyoto	-2.07
MLTTLLPILLLSGWAFCSQDASDGLQRLHMLQISYFRDPYHVWYQGNASLGGHLTHVLEGPDTNTTIIQLQPLQEPESWARTQSGLQSYLLQFHGLVRLVHQERTLAFPLTIRCFLGCELPPEGSRAHVFFEVAVNGSSFVSFRPERALWQADTQVTSGVVTFTLQQLNAYNRTRYELREFLEDTCVQYVQKHISAENTKGSQTSRSYTSLVLGVLVGSFIIAGVAVGIFLCTGGRRC [PROCR]	HeLa Kyoto	1.63
MGTDSRAAKALLARARTLHLQTGNLLNWGRLRKKCPSTHSEELHDCIQKTLNEWSSQINPDLVREFPDVLECTVSHAVEKINPDEREEMKVSAKLFIVESNSSSSTRSAVDMACSVLGVAQLDSVIIASPPIEDGVNLSLEHLQPYWEELENLVQSKKIVAIGTSDLDKTQLEQLYQWAQVKPNSNQVNLASCCVMPPDLTAFAKQFDIQLLTHNDPKELLSEASFQEALQESIPDIQAHEWVPLWLLRYSVIVKSRGIIKSKGYILQAKRRGS [GCLM]	HeLa Kyoto	0.373
MESSRGRPGPETDLLAVAEHQALVFGGGPGRTSSEPPAGLRVSGEEETENVGGANRHPRTSPKTSSCGVVHRPEREALENEPGPQGTLSGAGSRRGAPGAEHEPSLSSRHKNPAPPEGKPSSGRDCRRGGPGGGMDVEQQEEEDNDEEAAAGSRAGRSFSSRLQDSRSLDGLSEACGGAGSSGSAESGAGGGRRATISSPLELEGTVSRHGDLTHFVANNLQLKIRLSGAPPPPPSAPARPCPAPAPTPTPAIPPIDPEVLRDLERLSRELGGRVDRLLRGLGGAVQELTALSVGCIQTYRDAVDSLGEAVDMSIKGMYTLLARCEELERALQPVQGLARQVRDIRRTLEVLEALCK [C17ORF59]	HeLa Kyoto	-2.61
MADFLPSRSVLSVCFPGCLLTSGEAEQQRKSKEIDKCLSREKTYVKRLVKILLLGAGESGKSTFLKQMRIIHGQDFDQRAREEFRPTIYSNVIKGMRVLVDAREKLHIPWGDNSNQQHGDKMMSFDTRAPMAAQGMVETRVFLQYLPAIRALWADSGIQNAYDRRREFQLGESVKYFLDNLDKLGEPDYIPSQQDILLARRPTKGIHEYDFEIKNVPFKMVDVGGQRSERKRWFECFDSVTSILFLVSSSEFDQVLMEDRLTNRLTESLNIFETIVNNRVFSNVSIILFLNKTDLLEEKVQIVSIKDYFLEFEGDPHCLRDVQKFLVECFRNKRRDQQQKPLYHHFTTAINTENIRLVFRDVKDTILHDNLKQLMLQ [GNA13]	HeLa Kyoto	1.07
